target: Hck (UniProt P08631); test: phosphorylation enrichment, bacterial display (enrichment ratio); higher = better substrate or ligand; peptides without Tyr show the background
Sequence (P08631 whole entry, looked up): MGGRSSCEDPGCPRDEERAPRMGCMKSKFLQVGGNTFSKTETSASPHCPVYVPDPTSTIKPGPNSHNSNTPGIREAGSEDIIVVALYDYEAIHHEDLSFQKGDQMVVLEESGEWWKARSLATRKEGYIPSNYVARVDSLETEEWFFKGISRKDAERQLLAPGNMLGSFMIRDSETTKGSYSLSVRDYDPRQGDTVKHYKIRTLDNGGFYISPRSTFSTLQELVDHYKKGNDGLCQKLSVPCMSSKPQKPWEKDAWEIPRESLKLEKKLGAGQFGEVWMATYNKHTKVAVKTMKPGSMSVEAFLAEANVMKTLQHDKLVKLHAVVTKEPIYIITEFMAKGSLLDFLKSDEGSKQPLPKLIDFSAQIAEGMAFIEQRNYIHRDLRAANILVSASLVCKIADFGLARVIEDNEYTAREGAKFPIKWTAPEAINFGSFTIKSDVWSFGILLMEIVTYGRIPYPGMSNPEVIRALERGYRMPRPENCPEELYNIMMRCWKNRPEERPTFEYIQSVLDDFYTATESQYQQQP
Grouping by measured phosphorylation enrichment is done with the following cut points: bin 0: < 0.6; bin 1: ≥ 0.6 and < 0.8; bin 2: ≥ 0.8

# input Quick check: band for IGHGSYAKVLL [PRKCZ_Y263_R260H]
# output bin 0

# input Looking at ETKGDYEKILV [ANXA1_Y335] , which class would you pick?
# output bin 1

# input Which band does NSNSDYVDVLP [SH2D1B_Y127] fall in?
# output bin 1

# input Exercise: read the entry RSRSPYSPVLR [CDK13_Y399] and state which class it falls under.
# output bin 1

# input Class (by measured phosphorylation enrichment) for SYSGEYGGGGG [ZG16_Y30]
# output bin 0

# input Note: place this sequence into its band. Item: FCRIMYDIFPF [INTS13_Y67_YF]
# output bin 2

# input // return the class label for PNRILYGDFQQ [MYH7_Y715_R719Q]
# output bin 2

# input Class for TLNHQYDFTFD [CSNK1A1_Y292_YF] ?
# output bin 0

# input Exercise: read the entry HGVSSYDTIIS [LDLR_Y465_V468I] and state which class it falls under.
# output bin 1

# input Just checking, what class would you give MSNFAYVKREV [SCN1A_Y1694] here?
# output bin 0

# input Could you tell me which band PTTKTYFPRFD [HBA1_Y43_H46R] belongs to?
# output bin 0

# input Just checking, what class would you give HNLYSYPTKHE [MYO3A_Y1396] here?
# output bin 2

----------
system: c-Src; assay: phosphorylation enrichment, bacterial display (enrichment ratio); higher = better substrate or ligand; peptides without Tyr show the background
If the reported phosphorylation enrichment equals or exceeds 0.6, assign label 1. If not, assign label 0.

# input Quick check: does ALAAPYVLYPG [CEFIP_Y1332] have phosphorylation enrichment greater than or equal to 0.6?
# output label 1

# input Dear colleague, could you confirm whether RSRSSYTHSLN [MYCT1_Y116_G119S] has phosphorylation enrichment at or above 0.6?
# output label 1

# input // inclusive: phosphorylation enrichment at least 0.6? input: PQGVSYIYTID [DCX_Y103_R102S]
# output label 1

# input Answer whether phosphorylation enrichment of IGKAGYTDKMV [ENO1_Y236_V240M] is greater than or equal to 0.6.
# output label 0

# input Please indicate if the recorded phosphorylation enrichment for ERIEFYELDKK [PMM2_Y145] meets or exceeds 0.6.
# output label 0

# input API: above_or_equal(metric=phosphorylation enrichment, cutoff=0.6) for item GRDQPYSGAGD [TYRO3_Y828]
# output label 0

# input Would you say VVLEDYLDIKN [CLCNKB_Y138] shows phosphorylation enrichment at minimum 0.6?
# output label 0

# input Say whether SPFAVYRFFTF [RPGRIP1_Y826_YF] shows phosphorylation enrichment of 0.6 or more.
# output label 1

# input Quick check: does YSSLGYPPPEG [ZSWIM4_Y87] have phosphorylation enrichment greater than or equal to 0.6?
# output label 1

# input Please check the record EKDSNYCLCRT [ASIC2_Y357] and state if its phosphorylation enrichment is at or above 0.6.
# output label 0

# input Form field: phosphorylation enrichment at least 0.6? Entry: PIFEGYALPHA [ACTA1_Y171_YF]
# output label 0

# input Given the entry AKKVFYVNETR [SHH_Y253_I255N] , answer whether its phosphorylation enrichment meets or surpasses 0.6.
# output label 0

# input Check this sequence for phosphorylation enrichment at or above 0.6: PADQAYSWFQH [NDST1_Y711_R709Q_YF]
# output label 1

----------
target: Grb2 SH2 (UniProt P62993); test: SH2 binding enrichment of the phosphorylated peptide, bacterial display (enrichment ratio); higher = better substrate or ligand; peptides without Tyr show the background
Sequence (P62993 whole entry, looked up): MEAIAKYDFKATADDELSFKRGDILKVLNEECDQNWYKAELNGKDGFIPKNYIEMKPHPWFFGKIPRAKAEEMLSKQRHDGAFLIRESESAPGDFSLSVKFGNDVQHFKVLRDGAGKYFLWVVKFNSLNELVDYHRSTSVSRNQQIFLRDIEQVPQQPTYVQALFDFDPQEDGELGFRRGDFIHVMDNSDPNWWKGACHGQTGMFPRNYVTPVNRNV
Please go through the items and note down their SH2 binding enrichment.
Kindly provide the number alone.

# input Check the records and state SH2 binding enrichment for GGFTCYCDGKK [PROS1_Y266_YF]
# output 0.779

# input Identify SH2 binding enrichment associated with the sequence EPYELYCEMGS [CBL_Y371_Q367P]
# output 1.11

# input Note SH2 binding enrichment for the sequence shown: NSNSDYVDVLP [SH2D1B_Y127]
# output 0.835

# input Report SH2 binding enrichment, nothing else, for this sequence: TQTPPYVKKHR [LARP1B_Y457_P462R]
# output 1.18

# input Identify measured SH2 binding enrichment corresponding to ESLSSYRESAK [APOC2_Y47_W48R]
# output 0.858

# input Answer with the recorded SH2 binding enrichment of IIGNGYYFHVF [MYBPC3_Y1135_R1138H] only.
# output 0.834

# input Please supply the value of reported SH2 binding enrichment for the item RVSSVYTRSTG [CCR5_Y339_A335V]
# output 1.17

----------
target: Fes (UniProt P07332); test: phosphorylation enrichment, bacterial display (enrichment ratio); higher = better substrate or ligand; peptides without Tyr show the background
Sequence (P07332 whole entry, looked up): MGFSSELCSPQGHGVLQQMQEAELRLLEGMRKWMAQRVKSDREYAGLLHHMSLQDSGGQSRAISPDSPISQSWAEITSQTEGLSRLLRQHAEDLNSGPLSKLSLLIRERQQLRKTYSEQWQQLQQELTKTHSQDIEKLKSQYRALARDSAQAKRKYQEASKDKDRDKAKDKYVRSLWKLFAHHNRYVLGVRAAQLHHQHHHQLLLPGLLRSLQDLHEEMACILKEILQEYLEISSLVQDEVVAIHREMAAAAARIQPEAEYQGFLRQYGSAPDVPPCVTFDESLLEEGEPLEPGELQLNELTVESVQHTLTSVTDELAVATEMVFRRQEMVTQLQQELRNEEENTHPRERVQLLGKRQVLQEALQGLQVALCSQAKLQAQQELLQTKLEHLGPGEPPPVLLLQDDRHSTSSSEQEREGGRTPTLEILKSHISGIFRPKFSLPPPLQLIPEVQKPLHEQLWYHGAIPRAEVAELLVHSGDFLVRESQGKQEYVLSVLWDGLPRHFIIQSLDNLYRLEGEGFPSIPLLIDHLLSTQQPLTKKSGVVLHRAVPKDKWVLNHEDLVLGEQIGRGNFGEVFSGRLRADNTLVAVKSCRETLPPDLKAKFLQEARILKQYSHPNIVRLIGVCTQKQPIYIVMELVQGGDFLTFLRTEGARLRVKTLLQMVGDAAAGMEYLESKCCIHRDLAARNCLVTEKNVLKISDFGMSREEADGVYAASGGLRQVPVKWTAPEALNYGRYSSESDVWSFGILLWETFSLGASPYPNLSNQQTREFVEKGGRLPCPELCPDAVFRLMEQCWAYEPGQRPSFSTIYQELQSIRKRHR
Decide using phosphorylation enrichment: a value greater than or equal to 1 is fulfilled, a smaller one is not fulfilled.

# input Exam item: decide whether the reported phosphorylation enrichment for FTRNFYVRAVL [CYBA_Y88_YF] is at least 1.
# output fulfilled

# input Is phosphorylation enrichment for LEFGDYHPLKP [VPS35L_Y32] at or above 1?
# output fulfilled

# input Please tell me: is the sequence EEQKKYFNAVK [SCN5A_Y1494_M1498V_YF] at or over 1 in terms of phosphorylation enrichment?
# output fulfilled

# input Could you verify whether the entry LDYNEYVRDLN [HPRT1_Y198_F199V] shows phosphorylation enrichment of no less than 1?
# output fulfilled

# input Is the recorded value of phosphorylation enrichment equal to or greater than 1 for this sequence? ARGMEYLAEQK [MST1R_Y1198_G1195S]
# output not fulfilled

# input Is the recorded value of phosphorylation enrichment equal to or greater than 1 for this sequence? REVPVYTDSEP [FAM120B_Y368]
# output fulfilled

# input Kindly determine if phosphorylation enrichment recorded for HGEAYYSEVKA [PAK5_Y182_P187A] is above or exactly 1.
# output not fulfilled

# input Has LNLDTYQKRLR [PLA2G2D_Y126_R121L] a recorded phosphorylation enrichment greater than or equal to 1?
# output not fulfilled

# input Determine whether measured phosphorylation enrichment meets or exceeds 1 for SLEKGYELPDG [ACTC1_Y242_S241G]
# output not fulfilled

# input Reported phosphorylation enrichment reaches at least 1 for EVGRVYLFLQP [ITGA2B_Y360] ?
# output fulfilled

# input Does EVTQDYGLDPK [FH_Y110_N107T] have a reported phosphorylation enrichment of at least 1?
# output fulfilled

# input Has MKKMHYVDPDH [ST3GAL5_Y99] a recorded phosphorylation enrichment greater than or equal to 1?
# output not fulfilled

# input Does the reported phosphorylation enrichment for HFGNNYTDVLQ [MACC1_Y803_R804T_YF] fall at or above the 1 mark?
# output not fulfilled

# input Please check the record KLNNEYLELNY [MME_Y497] and state if its phosphorylation enrichment is at or above 1.
# output not fulfilled

# input Does the sequence KAIMTYVFSFF [ACTN4_Y260_S262F_YF] have recorded phosphorylation enrichment that is 1 or more?
# output not fulfilled

# input Exam item: decide whether the reported phosphorylation enrichment for PTTKTYFLHFD [HBA1_Y43_P45L] is at least 1.
# output fulfilled

# input Kindly determine if phosphorylation enrichment recorded for SEEVNYATLTF [CLEC12B_Y7_T6N] is above or exactly 1.
# output fulfilled

# input Is it the case that KSVITYSPTTG [ITGB3BP_Y32] has phosphorylation enrichment reaching or exceeding 1?
# output not fulfilled

# input Could you please find out whether GVKLTYGDAQS [SLC28A1_Y404_N409S] has phosphorylation enrichment that meets 1 or exceeds it?
# output not fulfilled

# input Decide: is the reported value of phosphorylation enrichment for VFLGAYDCFLP [SLC22A5_Y486_R488C_YF] equal to or greater than 1?
# output fulfilled

# input # check: phosphorylation enrichment of IYLADYRIMEG [ALOX12B_Y318] is greater than or equal to 1
# output fulfilled

# input For this sequence, is measured phosphorylation enrichment 1 or higher? PGPQSYPTVTG [PAX5_Y299_I301T]
# output not fulfilled

# input Could you please find out whether EFDRLYEEFTR [PIK3R1_Y467_YF] has phosphorylation enrichment that meets 1 or exceeds it?
# output fulfilled

# input hey, is phosphorylation enrichment for this one >= 1? EGNERYEGYCV [GRIA3_Y451]
# output fulfilled

# input Form field: phosphorylation enrichment at least 1? Entry: SLIDGYFRLTE [JAK2_Y372_A377E_YF]
# output fulfilled

# input Given the entry SGADSYEMEED [EGFR_Y316_C311S] , answer whether its phosphorylation enrichment meets or surpasses 1.
# output fulfilled

# input Evaluate DPADRYLTEQY [CDKL5_Y286_C291Y] : phosphorylation enrichment at minimum 1?
# output fulfilled

# input Textbook exercise: given the entry FQRLQYIKQLG [SAMHD1_Y146_R145Q] , state whether its phosphorylation enrichment is greater than or equal to 1.
# output not fulfilled

# input Is reported phosphorylation enrichment greater than or equal to 1 here: TDEFEYDELIV [TGM1_Y136_YF]
# output fulfilled

# input Determine whether this sequence has phosphorylation enrichment no lower than 1: QSVEPYTKQQL [STAT3_Y640]
# output not fulfilled

# input Check this sequence for phosphorylation enrichment at or above 1: LGSNTYPFLLM [SAG_Y120_T125M]
# output fulfilled

# input Check the entry `TRTDAYAVSSF` : does phosphorylation enrichment equal or exceed 1?
# output not fulfilled

# input Does RELSWYRGRRP [HESX1_Y106] have a reported phosphorylation enrichment of at least 1?
# output not fulfilled

# input Please indicate if the recorded phosphorylation enrichment for RKVLVYDKLNV [ROR2_Y624_N620K] meets or exceeds 1.
# output not fulfilled

# input Check if phosphorylation enrichment >= 1 (inclusive). Item: QRALLYEDTLY [UNC13D_Y56_A59T]
# output fulfilled

# input Has DTYDPYLDVAL [USP36_Y268] a recorded phosphorylation enrichment greater than or equal to 1?
# output fulfilled

# input Say whether PDGVEYLKNNP [GRIN3A_Y831_D835N] shows phosphorylation enrichment of 1 or more.
# output fulfilled

# input Is it the case that DEYLEYRRIVG [FAM221A_Y20] has phosphorylation enrichment reaching or exceeding 1?
# output not fulfilled

# input Is phosphorylation enrichment at least 1? Consider SDYYAYSPVQE [H6PD_Y449_R453Q]
# output not fulfilled

# input Answer whether phosphorylation enrichment of HFECKYVINAI [MAOA_Y268_YF] is greater than or equal to 1.
# output fulfilled

# input # check: phosphorylation enrichment of NFFDTYIKTCL [IQGAP2_Y1445_YF] is greater than or equal to 1
# output fulfilled

# input phosphorylation enrichment >= 1 for DGTGHYLGNAC [GATA5_Y208_C210G] ?
# output not fulfilled

# input Item LVPPRYARSEI [PKP2_Y194] with phosphorylation enrichment of 1 or above?
# output fulfilled

# input Hi team, for GPSTPYTKSKC [SMARCC2_Y324_R329C] , is the recorded phosphorylation enrichment at or above 1?
# output not fulfilled

# input Given PYRQWYESHYA [RPS8_Y113] , state whether its phosphorylation enrichment is at least 1.
# output fulfilled

# input Could you please find out whether SCTFTCLLGDR [ETHE1_Y38_Y38C] has phosphorylation enrichment that meets 1 or exceeds it?
# output fulfilled

# input API: above_or_equal(metric=phosphorylation enrichment, cutoff=1) for item LASSEYPVRRR [GALK1_Y236]
# output not fulfilled

# input Is phosphorylation enrichment at least 1? Consider RKLVDYDSARH [BIN1_Y150]
# output not fulfilled

# input Given PFFASYPPSPD [GDAP2_Y491_T489A_YF] , state whether its phosphorylation enrichment is at least 1.
# output fulfilled

# input Please indicate if the recorded phosphorylation enrichment for LRFKQYLRNPP [SHC1_Y315] meets or exceeds 1.
# output fulfilled

# input # check: phosphorylation enrichment of DGTGHYLCNAC [GATA5_Y208] is greater than or equal to 1
# output not fulfilled

# input Does PSGPMYRGAVP [ASAH1_Y43_T42M] have a reported phosphorylation enrichment of at least 1?
# output fulfilled

# input Is the recorded value of phosphorylation enrichment equal to or greater than 1 for this sequence? KPLMPSMRYSR [SMARCE1_Y73_Y73S]
# output not fulfilled

# input Does the reported phosphorylation enrichment for VVQGIYGYHHH [UFSP2_Y285_Y290H] fall at or above the 1 mark?
# output not fulfilled

# input Does phosphorylation enrichment meet or surpass 1 for GYGGGYGGVLT [KRT19_Y65_A60G] ?
# output not fulfilled

# input Evaluate FQLENCCNGGG [INS_Y108_Y108C_YF] : phosphorylation enrichment at minimum 1?
# output not fulfilled

# input Reported phosphorylation enrichment reaches at least 1 for PANMVYSTVEI [SLAMF7_Y304_T302M] ?
# output fulfilled
